Every entry's value here was drawn from patent US20080051418A1.

System: KKA^y mice
Assay: Blood glucose and blood lipid (triglyceride) lowering action in mice
Assay type: in vivo
Conditions: Mus musculus, po, 96 h, 0.005% in powder diet, 4 days, lowering rate of plasma triglyceride, non-administration group = 100%, read-out: hypolipidemic action (%)
Respond with TRUE for inhibition in vivo at 0.005 % values of 50% and above, FALSE for values below.

Exercise: Record COc1cccc(CC(=O)O)c1OCCCc1cc(OC(C)C)nn1C(C)c1ccc(Cl)cc1Cl (stereo not drawn) [Example 17] ; criterion: inhibition in vivo at 0.005 % no lower than 50%. Met?
Key: TRUE

Exercise: Record CCn1cc(CC(=O)O)c(OCCCc2ccc(OC(C)C)cc2Oc2ncc(C(F)(F)F)cc2Cl)n1 [Example 117] ; criterion: inhibition in vivo at 0.005 % no lower than 50%. Met?
Key: FALSE

Exercise: Record CCn1cc(CC(=O)O)c(OCCCc2cc(OC(C)C)nn2Cc2ccc(Cl)cc2Cl)n1 [Example 22] ; criterion: inhibition in vivo at 0.005 % no lower than 50%. Met?
Key: TRUE

Exercise: Record COc1ccccc1Cn1nc(OC(C)C)cc1CCCOc1c(CC(=O)O)cccc1OC [Example 62] ; criterion: inhibition in vivo at 0.005 % no lower than 50%. Met?
Key: TRUE

Exercise: Record CC(C)Oc1ccc(CCCOc2cc(CCC(=O)O)n(-c3ccccc3)n2)c(Oc2ncc(C(F)(F)F)cc2Cl)c1 [Example 136] ; criterion: inhibition in vivo at 0.005 % no lower than 50%. Met?
Key: FALSE

Exercise: Record COCOc1cc(CCCOc2nn(Cc3ccccc3)cc2CC(=O)O)n(Cc2ccc(Cl)cc2Cl)n1 [Example 95] ; criterion: inhibition in vivo at 0.005 % no lower than 50%. Met?
Key: TRUE

----------
Provide the recorded melting point for the entries that follow.

Exercise: Please report melting point for the following compound: `CC(C)Oc1cc(CCCOc2cc(CCC(=O)O)n(-c3ccccc3)n2)cc(COc2ccc(Cl)cc2Cl)c1`
Key: 104 to 106 °C

Exercise: Please report melting point for the following compound: `CC(C)Oc1cc(COc2cc(CCC(=O)O)n(-c3ccccc3)n2)cc(COc2ccc(Cl)cc2Cl)c1`
Key: 108 to 110 °C

Exercise: Please report melting point for the following compound: `CCCOc1cc(CCCOc2c(CC(=O)O)cccc2OC)n(Cc2ccc(Cl)cc2)n1`
Key: 131 to 132 °C

Exercise: Please report melting point for the following compound: `CC(C)Oc1ccc(CCCOc2nn(Cc3ccccc3)cc2CC(=O)O)c(Oc2ncc(Cl)cc2Cl)c1`
Key: 111 to 113 °C

Exercise: Please report melting point for the following compound: `CCc1cccc(CC(=O)O)c1OCCn1cc(CCOc2ncc(C(F)(F)F)cc2Cl)c(OC(C)C)n1`
Key: 76.5 to 77.5 °C

Exercise: Please report melting point for the following compound: `CC(C)Oc1cc(Oc2ccc(C(F)(F)F)cn2)ccc1CCCOc1cc(CCC(=O)O)n(-c2ccccc2)n1`
Key: 129.5 to 130.5 °C

Exercise: Please report melting point for the following compound: `COc1cccc(CC(=O)O)c1OCCCc1cc(OC(C)C)nn1Cc1ccc(C(F)(F)F)cc1`
Key: 116 to 117 °C

Exercise: Please report melting point for the following compound: `CCn1cc(CC(=O)O)c(OCCCc2ccc(Cc3ccccn3)cc2OC(C)C)n1`
Key: 97 to 98 °C

Exercise: Please report melting point for the following compound: `CC(C)Oc1ccc(CCCOc2cc(CCC(=O)O)n(C)n2)c(Oc2ncc(C(F)(F)F)cc2Cl)c1`
Key: 88 to 89 °C

Exercise: Please report melting point for the following compound: `CCS(=O)(=O)CCOc1cc(CCCOc2nn(Cc3ccccc3)cc2CC(=O)O)n(Cc2ccc(Cl)cc2Cl)n1`
Key: 100.4 to 101.4 °C

Exercise: Please report melting point for the following compound: `CCCOc1cc(CCCOc2c(CC(=O)O)cccc2OC)n(Cc2ccc(C(F)(F)F)cc2)n1`
Key: 122 to 123 °C

Exercise: Please report melting point for the following compound: `CCCn1nc(OCc2ccc3ccccc3n2)cc1COc1c(CC)cccc1CC(=O)O`
Key: 118 to 119 °C

Exercise: Please report melting point for the following compound: `CCn1nc(OCCCc2ccc(OCCOC)cc2OCc2ccc(C(F)(F)F)cc2)cc1CCC(=O)O`
Key: 112 to 113 °C

Exercise: Please report melting point for the following compound: `CN(C)CCOc1cc(CCCOc2nn(Cc3ccccc3)cc2CC(=O)O)n(Cc2ccc(Cl)cc2Cl)n1`
Key: 78.3 to 80.8 °C

Exercise: Please report melting point for the following compound: `CC(C)Oc1cc(COc2cc(CCC(=O)O)n(C)n2)cc(COc2ccc(Cl)cc2Cl)c1`
Key: 105 to 106 °C

Exercise: Please report melting point for the following compound: `CC(C)Oc1ccc(CCCOc2ncccc2CC(=O)O)c(Oc2ncc(Cl)cc2Cl)c1`
Key: 84 to 85 °C

Exercise: Please report melting point for the following compound: `COc1cccc(CC(=O)O)c1OCCCc1cc(OC(C)C)nn1Cc1ccc(C(F)(F)F)cc1Cl`
Key: 98 to 99 °C

Exercise: Please report melting point for the following compound: `CC(C)Oc1cc(CCCOc2ncccc2CC(=O)O)n(Cc2ccc(Cl)cc2Cl)n1`
Key: 88 to 90 °C

Exercise: Please report melting point for the following compound: `CC(C)c1ncc(CCCOc2nn(Cc3ccccc3)cc2CC(=O)O)c(Oc2ccc(Cl)cc2Cl)n1`
Key: 98 to 99 °C

Exercise: Please report melting point for the following compound: `CC(C)Oc1ccc(CCCOc2cc(CCC(=O)O)n(C)n2)c(OCc2ccc(Cl)cc2Cl)c1`
Key: 125 to 127 °C

Exercise: Please report melting point for the following compound: `COc1cccc(CC(=O)O)c1OCCCc1cc(C(C)C)nn1Cc1ccc(Cl)cc1Cl`
Key: 101 to 102 °C

Exercise: Please report melting point for the following compound: `Cc1cc(Cl)ccc1Cn1nc(OC(C)C)cc1CCCOc1nn(Cc2ccccc2)cc1CC(=O)O`
Key: 81 to 82 °C

Exercise: Please report melting point for the following compound: `CCOc1cc(Cl)ccc1Cn1nc(OC(C)C)cc1CCCOc1c(CC(=O)O)cccc1OC`
Key: 98 to 99 °C
